Every entry's value here was drawn from patent US11021444B2.

assay: Cytotoxicity Determination (CCK-8, without addition of virus); assay type: cell-based; conditions: human, 50% cytotoxicity concentration (CC50)
Would you kindly list CC50 at 5 days for each of these compounds?

Input COc1ccc(C(=O)NCC(O)(c2ccc(OC)c(-c3ccc(F)c(Cl)c3)n2)C2CC2)cc1OC (stereo not shown) . Output CC50 at 5 days: 10 to 100 µM

Input COc1cc(C(=O)NCC(O)(c2ccc(OC)c(-c3ccc(F)c(Cl)c3)n2)C2CC2)ccc1OCC(N)=O (single isomer, unassigned) [Compound 431] . Output CC50 at 5 days: 10 to 100 µM

Input COc1cc(C(=O)NCC(O)(c2cc(C(C)(C)NC3CCC3)cc(-c3ccc(F)c(Cl)c3)n2)C(F)(F)F)ccc1OC1CC1 (stereo not shown) . Output CC50 at 5 days: 10 to 100 µM

Input COc1cc(-c2csc3c(F)cccc23)nc(C(O)CNC(=O)c2cc(OC)c(OC)cc2O)c1 (stereo not shown) . Output CC50 at 5 days: 10 to 100 µM

Input COc1cc(C(=O)NCC(O)(c2cc3c(c(-c4ccc(Cl)cc4)n2)OCC3(C)N)C(F)(F)F)ccc1OCCO (stereo not shown) . Output CC50 at 5 days: 10 to 100 µM

Input COc1cc(C(=O)NCC(O)(c2cc(C(C)(C)N)cc(-c3ccc(C#N)cc3)n2)C(F)(F)F)ccc1OCC(N)=O (stereo not shown) . Output CC50 at 5 days: > 100 µM

Input COc1cc(C(=O)NCC(O)(c2cc(C(C)(N)CF)cc(-c3ccc(F)cc3)n2)C(F)(F)F)ccc1OC[C@@H](C)O (stereo partly shown) . Output CC50 at 5 days: 10 to 100 µM
